meta.source: patent US9732075B2

target: human orexin-2 receptor (Homo sapiens (Human), UniProt O43614); test: In vitro assay: intracellular calcium measurements (FLIPR), antagonistic activity; conditions: CHO cells expressing human orexin-2 receptor, orexin-A agonist, geometric mean, read-out: IC50 Ox2
Sequence (O43614 whole entry): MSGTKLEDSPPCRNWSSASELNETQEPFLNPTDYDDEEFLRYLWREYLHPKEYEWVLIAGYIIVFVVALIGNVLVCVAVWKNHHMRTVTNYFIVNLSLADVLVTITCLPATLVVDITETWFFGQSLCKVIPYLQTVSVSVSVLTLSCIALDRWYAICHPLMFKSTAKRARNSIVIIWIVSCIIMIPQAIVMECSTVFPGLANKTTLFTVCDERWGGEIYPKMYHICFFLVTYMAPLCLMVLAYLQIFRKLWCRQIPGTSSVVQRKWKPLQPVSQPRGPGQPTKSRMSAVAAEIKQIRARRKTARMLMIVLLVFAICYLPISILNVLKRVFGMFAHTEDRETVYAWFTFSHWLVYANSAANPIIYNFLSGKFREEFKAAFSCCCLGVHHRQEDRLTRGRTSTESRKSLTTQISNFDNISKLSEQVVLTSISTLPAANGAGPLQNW
assay-metric: IC50 (nM)
Write the answer as a number in nM, unit excluded.

Which IC50 is reported for this molecule? CO[C@@H]1C[C@@H](c2nc3c(C)c(Cl)ccc3[nH]2)N(C(=O)c2nc(C)sc2-c2ccccc2)C1 4

Item C=C1CC(c2nc3cc(C)c(C)cc3[nH]2)N(C(=O)c2nc(C3CC3)sc2-c2cccc(C)c2)C1 (stereo not shown) has what recorded IC50? 1

Reported IC50, molecule COCCn1c([C@]2(C)CCCN2C(=O)c2cc(C)ccc2-c2ccccc2F)nc2cc(C)c(C)cc21 : ____ 270

# get_value(readout='IC50', item= CSc1cccc2nc([C@@H]3CCCN3C(=O)c3cc(F)ccc3-n3nccn3)[nH]c12 ) 17

###

target: human orexin-2 receptor (Homo sapiens (Human)); test: In vitro assay: intracellular calcium measurements (FLIPR), antagonistic activity; format: cell-based; details: CHO cells expressing human orexin-2 receptor, orexin-A agonist, geometric mean, read-out: IC50 Ox2
assay-metric: pIC50
// scale note: pIC50 = -log10(conc_M); give the bare number

Given the entry CO[C@@H]1C[C@@H](c2nc3ccc(Cl)c(C)c3[nH]2)N(C(=O)c2c(C)cccc2-n2nccn2)C1 , report its measured pIC50. 7.64

Form field: reported pIC50 of Cc1ccc(-n2nccn2)c(C(=O)N2CCC[C@@]2(C)c2nc3cc(F)c(Br)cc3[nH]2)n1 6.75

Which measured pIC50 value corresponds to COCCn1c([C@]2(C)CCCN2C(=O)c2cc(C)ccc2-c2ccc(C)cc2)nc2cc(C)c(C)cc21 ? 6.97

// returns reported pIC50 for input Cc1ccc(-c2ccc(F)cc2C)c(C(=O)N2CCC[C@@]2(C)c2nc3c(C)c(C)ccc3[nH]2)c1 6.79

Look up pIC50 for this compound: Cc1nc(C(=O)N2CC[C@H](C)[C@H]2c2nc3c(C(F)(F)F)cccc3[nH]2)c(-c2ccccc2Cl)s1 6.05

Any idea what its pIC50 is? The compound is Cc1nc(C(=O)N2CC[C@H](C)[C@H]2c2nc3c(C(F)(F)F)cccc3[nH]2)c(-c2ccc(F)c(F)c2)s1 5.32

Please look up its pIC50: COc1cc2nc([C@@H]3[C@@H](C)CCN3C(=O)c3c(-n4nccn4)ccc(OC)c3F)[nH]c2cc1OC 5.24

Requested read-out: pIC50. Entry: COc1ccc(-c2ccc(C)cc2C(=O)N2CCC[C@@]2(C)c2nc3cc(C)c(C)cc3[nH]2)cc1 7.43

Please give the measured pIC50 for this compound: COc1ccc2nc([C@@H]3CCCN3C(=O)c3cc(C#N)ccc3-n3nccn3)[nH]c2c1 7.64

Which pIC50 is listed for C[C@@]1(c2nc3cc(C(F)(F)F)ccc3[nH]2)CCCN1C(=O)c1cc(-c2cccc(C#N)c2)ccc1-n1nccn1 ? 6.60

Report pIC50 for COc1cc2nc([C@]3(C)CCCN3C(=O)c3nc(C)sc3-c3ccc(C(F)(F)F)cc3)[nH]c2cc1OC please. 6.38

Item under review: C=C1C[C@@H](c2nc3c(OC)ccc(OC)c3[nH]2)N(C(=O)c2nc(C)sc2-c2ccc(C)c(C)c2)C1 . Reported pIC50? 8.15

For C=C1C[C@@H](c2nc3cc(C(C)(C)C)ccc3[nH]2)N(C(=O)c2cc(Cl)ccc2-n2nccn2)C1 , what is its reported pIC50? 8.52

So what does the record say about pIC50 for C=C1C[C@@H](c2nc3cc(OC)ccc3[nH]2)N(C(=O)c2cnc(C)nc2-c2cccc(C)c2)C1 ? 7.25

Suppose we examine the compound Cc1nc(C(=O)N2CC[C@H](C)[C@H]2c2nc3c(Cl)cccc3[nH]2)c(-c2ccc(F)cc2)s1 ; what pIC50 value has been reported? 5.36
